Attribute: pIC50
target: 5-HT2A receptors (Rattus norvegicus); assay: in-vitro affinity to 5-HT2A receptors, displacement of [3H]ketanserine (Example A1); format: binding; conditions: read-out: HT2A IC50
Sequence (P14842 whole entry): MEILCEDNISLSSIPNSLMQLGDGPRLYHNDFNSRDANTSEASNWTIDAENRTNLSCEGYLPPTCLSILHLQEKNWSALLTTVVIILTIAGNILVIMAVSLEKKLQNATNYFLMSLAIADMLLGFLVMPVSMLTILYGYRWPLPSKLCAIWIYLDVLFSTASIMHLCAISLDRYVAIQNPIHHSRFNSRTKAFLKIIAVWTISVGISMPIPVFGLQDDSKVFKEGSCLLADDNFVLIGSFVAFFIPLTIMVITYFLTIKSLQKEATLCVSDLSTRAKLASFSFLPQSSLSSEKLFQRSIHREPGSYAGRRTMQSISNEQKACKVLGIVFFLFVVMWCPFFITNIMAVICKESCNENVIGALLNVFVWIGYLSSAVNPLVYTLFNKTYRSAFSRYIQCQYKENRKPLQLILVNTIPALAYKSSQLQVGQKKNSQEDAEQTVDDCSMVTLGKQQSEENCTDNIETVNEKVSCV
pIC50: −log10 of the molar value.

{"mol.smiles": "Fc1ccccc1-c1c(CNCCCn2ccnc2)cnn1-c1ccc(-c2ccccc2)cc1", "pIC50": 6.77}
{"mol.smiles": "CN1CCN(Cc2cnn(-c3cccc(-c4ccc(Cl)cc4)c3)c2-c2ccccc2F)CC1", "pIC50": 6.41}
{"mol.smiles": "COc1ccc(-c2ccc(-n3ncc(CN4CCN(C)CC4)c3-c3ccccc3F)cc2)cc1", "pIC50": 8.12}
{"mol.smiles": "NC(=O)CN1CCN(Cc2cnn(-c3ccc(-c4ccccc4)cc3)c2-c2ccccc2F)CC1", "pIC50": 6.44}
{"mol.smiles": "CN1CCC(N(C)Cc2cnn(-c3ccc(-c4ccccc4)cc3)c2-c2ccccc2F)CC1", "pIC50": 6.80}

====

Biological target: 5 HT2C receptor (Homo sapiens, UniProt P28335)
Sequence (P28335 33-458): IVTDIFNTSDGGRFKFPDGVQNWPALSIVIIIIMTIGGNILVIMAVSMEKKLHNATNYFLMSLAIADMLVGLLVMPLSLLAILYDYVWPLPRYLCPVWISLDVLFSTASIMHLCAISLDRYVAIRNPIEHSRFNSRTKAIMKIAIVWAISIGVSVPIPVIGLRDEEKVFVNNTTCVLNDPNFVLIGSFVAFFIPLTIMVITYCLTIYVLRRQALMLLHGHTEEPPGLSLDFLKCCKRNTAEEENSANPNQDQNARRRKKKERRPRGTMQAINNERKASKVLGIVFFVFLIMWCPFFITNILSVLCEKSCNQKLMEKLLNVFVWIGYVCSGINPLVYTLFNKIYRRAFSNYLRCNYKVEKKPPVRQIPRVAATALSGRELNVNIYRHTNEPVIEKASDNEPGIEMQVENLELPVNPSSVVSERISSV
pIC50: −log10 of the molar value.

{"compound": "OC1CCN(CCc2cnn(-c3ccc(-c4ccc(F)cc4)cc3)c2-c2ccccc2F)C1 (stereo not drawn)", "system.tested": "5 HT2C receptor (Homo sapiens, UniProt P28335)", "pIC50": 6.21}
{"compound": "CC(C)(C)OC(=O)N1CCN(Cc2cnn(-c3ccc(-c4ccccc4)cc3)c2-c2ccccc2F)CC1", "system.tested": "5 HT2C receptor (Homo sapiens, UniProt P28335)", "pIC50": 6.00}
{"compound": "CN1CCN(Cc2cnn(-c3ccc(-c4ccsc4)cc3)c2-c2ccco2)CC1", "system.tested": "5 HT2C receptor (Homo sapiens, UniProt P28335)", "pIC50": 6.68}
{"compound": "CN(C)CCN(C)Cc1cnn(-c2ccc(-c3ccccc3)cc2)c1-c1ccccc1F", "system.tested": "5 HT2C receptor (Homo sapiens, UniProt P28335)", "pIC50": 6.04}
{"compound": "CC(C)c1ccc(-c2ccc(-n3ncc(CN4CCN(C)CC4)c3-c3ccccc3F)cc2)cc1", "system.tested": "5 HT2C receptor (Homo sapiens, UniProt P28335)", "pIC50": 6.08}
{"compound": "Fc1ccccc1-c1c(CN2CCCC2)cnn1-c1ccc(-c2ccccc2)cc1", "system.tested": "5 HT2C receptor (Homo sapiens, UniProt P28335)", "pIC50": 6.00}
{"compound": "O=C1CCCN1CCCNCc1cnn(-c2ccc(-c3ccccc3)cc2)c1-c1ccccc1F", "system.tested": "5 HT2C receptor (Homo sapiens, UniProt P28335)", "pIC50": 6.00}
{"compound": "Cn1cccc1CNCc1cnn(-c2ccc(-c3ccccc3)cc2)c1-c1ccccc1", "system.tested": "5 HT2C receptor (Homo sapiens, UniProt P28335)", "pIC50": 6.28}
{"compound": "CN1CC2CC1CN2Cc1cnn(-c2ccc(-c3ccccc3)cc2)c1-c1ccccc1F (stereo not drawn)", "system.tested": "5 HT2C receptor (Homo sapiens, UniProt P28335)", "pIC50": 6.17}

meta.source: patent US20060264419A1
